B1: LINE1-full (parent)
chain: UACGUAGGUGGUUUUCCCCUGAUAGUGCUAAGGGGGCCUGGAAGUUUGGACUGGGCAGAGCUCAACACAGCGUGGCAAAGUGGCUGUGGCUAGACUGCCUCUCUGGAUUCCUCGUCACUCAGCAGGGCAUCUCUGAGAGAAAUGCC

- Variants of: B1
- assay_details: self-cleavage, relative activity (ratio to wild type); higher = more cleavage; in vitro, sequencing; the parent is a self-cleaving ribozyme
Label MET for high-side self-cleavage (at or above 0.7) and NOT MET for low-side self-cleavage (below it).

// below: answered variants
1. U13C C103U
MET
2. A107U U134G
MET
3. U45C G97A
NOT MET

Reported self-cleavage reaches at least 0.7 for G74A U102C ?
MET

For this variant, is measured self-cleavage 0.7 or higher? A22G U115G
MET

Hello, I need to know if A2G U102C has measured self-cleavage not below 0.7. Thanks!
MET

Exam item: decide whether the reported self-cleavage for G11A U20C is at least 0.7.
MET

Assess whether reported self-cleavage for A50G A121G sits at 0.7 or higher.
MET

Exam item: decide whether the reported self-cleavage for U23A U132C is at least 0.7.
NOT MET

Determine whether measured self-cleavage meets or exceeds 0.7 for `A67C`
NOT MET
